Origin of the recorded values: patent US7335659B2

test.system: human estrogen receptor β receptor (hERβ) (Homo sapiens, UniProt Q92731)
Construct: expressed in transfected cells; host or cells: Chinese hamster ovary (CHO) cells, stably co-transfected with hERβ, rat oxytocin promoter and luciferase reporter gene
Sequence (Q92731 whole entry): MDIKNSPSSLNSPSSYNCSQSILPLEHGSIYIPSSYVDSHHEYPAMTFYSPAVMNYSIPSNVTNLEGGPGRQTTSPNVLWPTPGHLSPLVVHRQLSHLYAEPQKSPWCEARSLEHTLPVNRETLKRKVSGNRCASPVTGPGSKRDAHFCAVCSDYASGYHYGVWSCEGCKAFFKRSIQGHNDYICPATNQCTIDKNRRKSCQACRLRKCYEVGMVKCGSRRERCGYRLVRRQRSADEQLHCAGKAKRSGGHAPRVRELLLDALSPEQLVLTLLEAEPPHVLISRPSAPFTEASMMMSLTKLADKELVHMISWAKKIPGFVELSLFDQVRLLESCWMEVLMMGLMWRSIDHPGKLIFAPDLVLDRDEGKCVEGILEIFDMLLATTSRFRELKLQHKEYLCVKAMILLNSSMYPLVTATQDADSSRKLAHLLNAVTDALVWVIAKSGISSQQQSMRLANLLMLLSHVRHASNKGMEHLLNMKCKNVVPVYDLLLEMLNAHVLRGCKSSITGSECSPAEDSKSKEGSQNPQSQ
assay.details: Antiestrogenic activity in in vitro bioassay with recombinant CHO cells co-transfected with hERβ, rat oxytocin promoter and luciferase reporter gene
Format: cell-based
particulars: potency ratio relative to standard ICI 164.384; inhibition of estradiol-induced luciferase transactivation via hERβ in CHO cells
recorded.metric: ERβ antagonism

molecule.smiles: Oc1ccc2c(c1)Cc1c-2cc2ccc(O)cc2c1-c1ccc(OCCN2CCCCC2)cc1
observed.measurement: ++ (>40%: ++)

molecule.smiles: Oc1ccc2c(c1)Cc1c-2cc2ccc(O)cc2c1-c1ccccc1C(F)(F)F
observed.measurement: ++ (>40%: ++)
